measurement.target: T1, VEGF 1 (VZ-8) (synthetic, UniProt P08047)
T1 chain: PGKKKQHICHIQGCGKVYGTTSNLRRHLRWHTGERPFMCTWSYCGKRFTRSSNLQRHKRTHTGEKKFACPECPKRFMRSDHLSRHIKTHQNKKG
assay.info: EMSA; 170 mM KCl, 1.7 mM MgCl2, Zn
condition: tags: MBP fusion (pMal-c2), SP1 backbone

binder: VZ-8 target (dsDNA) DNA 1: GGGGAGGATC DNA 2: GATCCTCCCC
Kd [nM]: 2.83

// data source = patent US20030021776
